Test: soluble fraction after stress (log2 fold change); higher = more stays soluble; pooled small domains, quantitative proteomics
Conditions: stress: pH 4
soluble fraction (log2) listing for selected sequences.
Write the value as a bare number.

Past entries and their recorded results:
HMTYKPAADFKPSDTSSLKEGMKVEHPKFGFGTVMKMEEVGTERKARINFADFGEKTLLLSFAKLKIHEN    -0.361
HMSSLDTLTARETQILAEMAQGKNNAAIAAAVSVSERAVEKHTNSIFAKLGLSEEKDVNRRVMAVLLFLGR    -1.5
HMQDLPPIHLSRGMTDYTLVRSRRRTLSMELKRDGTVVVHAPLRLGVEKIDAFVAAHEAWLARARTRQAER    0.196

Turning now to a further record.
Ask: What does the record list as soluble fraction (log2) for HMGAQRDFELQLIDVIRQNPGLTYKAYGEKLSVSQATVKRLVAKLKETGSIRREGSQRKGTWIITDD ?
Reply: 0.252

* * *

Recorded soluble fraction (log2), one value per entry.
Assay: soluble fraction after stress (log2 fold change); higher = more stays soluble; pooled small domains, quantitative proteomics
Conditions: stress: pH 4

HMLESVMHSRIAEIISREGTAPAHMSMQEKIRVVHKLDADGILMMKGAVAEIADQLSVSVPTIYRYLNKPQ    ≥ 0.43

Ask: Entry HMRQTGWVTADSLNVRARPSLQAERVEKVTYGQQVQIMFKQGQWYQIATENGKIGWVSSEYIAAVSP : reported soluble fraction (log2) = ?
Reply: 0.0725

Ask: Could you do the same for HMEQETVTVPDLVGKDVVAAQAELHEMGLSGKPDGTGTTVVSQFPVAGARVLKHTNVILYTED , please?
Reply: 0.0839

* * *

Assay: soluble fraction after stress (log2 fold change); higher = more stays soluble; pooled small domains, quantitative proteomics
Details: stress: pH 4
Please note: rule met applies when soluble fraction (log2) is -0.6 or greater, and rule not met applies otherwise.

HMLKAKKIPVSDLEKFKGIVAEDVVSKAKALILPRGSNLSWLSNVAKKNLIAKLKAEGIEYISVYSS    rule met
HMLAQISDEGAIGAVVARVLDAHPNEVARYHAGEEKVAKFLMGAAMRELRGKGDPAVVQRLLSEGLDARRV    rule met
HMPDLSYVDEVLNRYKGHKGTLITVLQQVQAHKGYLEKEALERVARSMGVPTARIYGVVTFYAQFR    rule met

Ask: Please check the record HMTGIKISVDRLQIGNYVKLPLNWKDHPFLFSSFAIKSQEEIDLIRRLGLKQVIMFPDKSSMPPKPV and state if its soluble fraction (log2) is at or above -0.6.
Reply: rule met

* * *

Each item that follows carries a reported soluble fraction (log2).
Assay: soluble fraction after stress (log2 fold change); higher = more stays soluble; pooled small domains, quantitative proteomics
Settings: stress: pH 4
Answer using only a numeral; do not append any unit.

As a guide, the following entries are already answered.
HMGIDISAFSETALQVLRLQAAGYTAKEISEKLHITPRTVKYHASQNYRKLDAKNLVDAVQIAQALHI    -0.171
HMSATVLVHVLGEVRKPGVVSLPEGSRVQDAITAAGGLTSRAKPGDLNLAARVSDGAQLVIGRSGSQVRTT    0.103
HMTAQLAAQERTHALDMFMGGYKFSSKPAENGVRAEFEKKNFTLEDGKFLGGDEFMKSLMENDDYKGAFV    -0.509

Ask: // query soluble fraction (log2) value for entry HMLPIGSSREQVISSLNKMHQDYKEEGNFIYAGYFKQGLPLVPSPRISIALQFNETAHLEKIDATLNYV
Reply: -0.467

Data credit: the domain aggregation screens of Martell et al. (2025)
